# Tested on: response to skin puncture
# procedureSummary: Anaesthesia by infiltration (subcutaneous, back puncture)
# Format: in vivo, guinea pigs
# settings: lidocaine = 1
recordedMetric: Infiltration anaesthesia DL50/CE50 relative to lidocaine
Number only, please.

Look over these answered cases.
# chemicalString, numericValue
measured = [
    ("CCN(CC)Cc1cccc(C(=O)Nc2c(C)cccc2C)c1", 1.54),
    ("Cc1cccc(C)c1NC(=O)c1cccc(CN2CCCCC2)c1", 3.01),
    ("Cc1cccc(C)c1NC(=O)c1ccc(CN2CCOCC2)cc1", 0.54),
]

// field: Infiltration anaesthesia DL50/CE50 relative to lidocaine; key: CCN(CC)Cc1ccccc1C(=O)Nc1c(C)cccc1C ; value = 0.36

Infiltration anaesthesia DL50/CE50 relative to lidocaine reading for Cc1cccc(C)c1NC(=O)c1ccccc1CN1CCCC1 : 0.86

response.value for Cc1cccc(C)c1NC(=O)c1ccc(CN2CCCCC2)cc1 (field: Infiltration anaesthesia DL50/CE50 relative to lidocaine) = 3.97

Sure, the documented Infiltration anaesthesia DL50/CE50 relative to lidocaine for Cc1cccc(C)c1NC(=O)c1ccccc1CN1CCCCC1 is 2.19

Lab note: Cc1cccc(C)c1NC(=O)c1ccccc1CN1CCOCC1 gave Infiltration anaesthesia DL50/CE50 relative to lidocaine of 0.52

For record CCN(CC)Cc1ccccc1C(=O)Nc1c(C)cccc1Cl the listed Infiltration anaesthesia DL50/CE50 relative to lidocaine is 0.31

Record Cc1cccc(C)c1NC(=O)c1cccc(CN2CCCC2)c1 , field Infiltration anaesthesia DL50/CE50 relative to lidocaine: 0.15

Record summary for CCN(CC)Cc1ccc(C(=O)Nc2c(C)cccc2C)cc1 : reported Infiltration anaesthesia DL50/CE50 relative to lidocaine = 0.05

The reported value for Cc1cccc(C)c1NC(=O)c1cccc(CN2CCOCC2)c1 in terms of Infiltration anaesthesia DL50/CE50 relative to lidocaine is 1.44

Sure, the documented Infiltration anaesthesia DL50/CE50 relative to lidocaine for Cc1cccc(C)c1NC(=O)c1ccc(CN2CCCC2)cc1 is 0.25

The molecule identified as CCN(CC)Cc1ccccc1C(=O)Nc1c(C)cccc1C(=O)OC registered its Infiltration anaesthesia DL50/CE50 relative to lidocaine at 0.30

---

# Tested on: reflux of contraction of the lower limbs (lumbar plexus)
# procedureSummary: Anaesthesia by conduction (lumbar plexus)
# Assay type: in vivo, frogs
# settings: lidocaine = 1
recordedMetric: Conduction anaesthesia DL50/t' relative to lidocaine
Keep it simple and answer with nothing but the number.

Here is how some molecules turned out for Conduction anaesthesia DL50/t' relative to lidocaine.
# chemicalString, testedTarget, numericValue
rows = [
    ("Cc1cccc(C)c1NC(=O)c1cccc(CN2CCCCC2)c1", "reflux of contraction of the lower limbs (lumbar plexus)", 3.15),
    ("Cc1cccc(C)c1NC(=O)c1ccccc1CN1CCOCC1", "reflux of contraction of the lower limbs (lumbar plexus)", 1.61),
    ("Cc1cccc(C)c1NC(=O)c1ccccc1CN1CCCC1", "reflux of contraction of the lower limbs (lumbar plexus)", 4.23),
    ("CCN(CC)Cc1ccccc1C(=O)Nc1c(C)cccc1Cl", "reflux of contraction of the lower limbs (lumbar plexus)", 1.23),
    ("Cc1cccc(C)c1NC(=O)c1cccc(CN2CCCC2)c1", "reflux of contraction of the lower limbs (lumbar plexus)", 17.31),
    ("Cc1cccc(C)c1NC(=O)c1ccccc1CN1CCCCC1", "reflux of contraction of the lower limbs (lumbar plexus)", 6.69),
]

Note to self: Conduction anaesthesia DL50/t' relative to lidocaine recorded for CCN(CC)Cc1ccccc1C(=O)Nc1c(C)cccc1C was 0.46

For reference, reported Conduction anaesthesia DL50/t' relative to lidocaine for Cc1cccc(C)c1NC(=O)c1ccc(CN2CCOCC2)cc1 stands at 4.46

Short answer for Cc1cccc(C)c1NC(=O)c1ccc(CN2CCCCC2)cc1 : Conduction anaesthesia DL50/t' relative to lidocaine was 1.46
